From: patent US9238656B2

# Target System: baculovirus-expressed JAK2 kinase (Homo sapiens, UniProt O60674)
# Sequence (O60674 whole entry): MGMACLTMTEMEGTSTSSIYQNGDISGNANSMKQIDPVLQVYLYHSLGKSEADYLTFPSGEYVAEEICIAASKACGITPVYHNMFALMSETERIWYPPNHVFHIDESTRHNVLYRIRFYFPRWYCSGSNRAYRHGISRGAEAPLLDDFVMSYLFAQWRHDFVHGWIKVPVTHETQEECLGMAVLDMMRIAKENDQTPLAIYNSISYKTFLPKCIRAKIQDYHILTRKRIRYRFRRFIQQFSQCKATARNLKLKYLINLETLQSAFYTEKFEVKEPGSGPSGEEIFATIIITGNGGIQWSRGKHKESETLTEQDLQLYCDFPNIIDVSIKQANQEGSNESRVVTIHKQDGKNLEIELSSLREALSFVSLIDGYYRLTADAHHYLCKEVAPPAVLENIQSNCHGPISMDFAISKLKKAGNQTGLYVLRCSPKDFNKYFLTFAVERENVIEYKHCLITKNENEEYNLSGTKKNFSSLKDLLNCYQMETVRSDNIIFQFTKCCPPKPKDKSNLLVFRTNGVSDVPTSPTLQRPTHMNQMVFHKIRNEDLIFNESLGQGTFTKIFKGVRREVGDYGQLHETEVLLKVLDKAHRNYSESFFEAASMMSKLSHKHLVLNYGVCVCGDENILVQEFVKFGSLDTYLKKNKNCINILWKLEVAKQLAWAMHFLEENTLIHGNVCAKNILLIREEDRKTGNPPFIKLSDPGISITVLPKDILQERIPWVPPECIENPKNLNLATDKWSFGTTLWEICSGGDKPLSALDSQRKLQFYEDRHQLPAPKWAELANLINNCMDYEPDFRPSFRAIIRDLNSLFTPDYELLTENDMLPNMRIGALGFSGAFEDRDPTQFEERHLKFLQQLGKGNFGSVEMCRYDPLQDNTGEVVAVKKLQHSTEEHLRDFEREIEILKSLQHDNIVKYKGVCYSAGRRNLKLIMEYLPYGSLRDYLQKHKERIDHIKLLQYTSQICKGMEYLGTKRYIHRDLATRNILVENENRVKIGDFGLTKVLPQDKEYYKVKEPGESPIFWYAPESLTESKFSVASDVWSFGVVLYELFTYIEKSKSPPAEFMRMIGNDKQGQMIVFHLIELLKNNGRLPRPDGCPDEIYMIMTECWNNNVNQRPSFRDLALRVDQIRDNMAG
# Assay Overview: biochemical
# Particulars: 0.2 μM ATP; read-out: JAK2 Potency
Readout Type: IC50

Worked set:
Can you look up the measured IC50 of Cn1cc(-c2nc3c(N[C@H]4[C@@H](C(N)=O)[C@@H]5C=C[C@H]4C5)c(Br)cnc3[nH]2)cn1 [Compound LXXXV] for me?
< 100 nM

// IC50 lookup, key: NC(=O)[C@@H]1[C@H](Nc2c(Br)cnc3[nH]c(-c4cccc(CN5CCOCC5)c4)nc23)[C@H]2C=C[C@@H]1C2 [Compound LXXXI]
< 100 nM

What value of IC50 has been recorded for this entry: CCNC(=O)N1CCC(n2cc(-c3nc4c(N[C@H]5[C@@H](C(N)=O)[C@@H]6C=C[C@H]5C6)c(Cl)cnc4[nH]3)cn2)CC1 [Compound LXII]
< 100 nM

---
Reported IC50 for CC(=O)N1CCN(Cc2ccc(-c3nc4c(N[C@H]5[C@@H](C(N)=O)[C@@H]6C=C[C@H]5C6)c(Br)cnc4[nH]3)cc2)CC1 [Compound CLVI] : what is it?
< 100 nM

Reported IC50 for NC(=O)[C@@H]1[C@H](Nc2c(Cl)cnc3[nH]c(-c4ccc(C(=O)NCC(=O)O)cc4)nc23)[C@H]2C=C[C@@H]1C2 [Compound CCXXVIII] : what is it?
< 100 nM

Which IC50 value is on record for COc1cc(N2CCOCC2)ccc1-c1nc2c(N[C@H]3[C@@H](C(N)=O)[C@@H]4CC[C@H]3O4)c(Cl)cnc2[nH]1 [Compound CCVI] ?
1000 to 10000 nM

====

# Target System: baculovirus-expressed JAK2 kinase (Homo sapiens)
# Assay Overview: biochemical
# Particulars: 0.2 μM ATP; read-out: JAK2 Potency
# Description: Compounds were tested for their ability to inhibit the kinase activity of baculovirus-expressed JAK2 kinase using the time-resolved fluorescence (TRF) detection system. […] Inhibition data were analyzed using ActivityBase (IDBS, Guilford, UK). IC50 values were calculated by plotting percent inhibition versus log10 of the concentration of compound and fitting to the nonlinear regression sigmoidal dose-response (variable slope) equation in XLFit (IDBS, Guilford, UK).
Readout Type: IC50

Sample records with IC50:
Which IC50 is listed for `Cc1nn(C)c(C)c1-c1nc2c(N[C@H]3[C@@H](C(N)=O)[C@@H]4C=C[C@H]3C4)c(Cl)cnc2[nH]1` ?
< 100 nM

Using the record for `C=CCc1ccc(-c2nc3c(N[C@H]4[C@@H](C(N)=O)[C@@H]5C=C[C@H]4C5)c(Cl)cnc3[nH]2)c(OC)c1` , report its IC50.
< 100 nM

Given `COc1cc(CN2CCNCC2)ccc1-c1nc2c(N[C@H]3[C@@H](C(N)=O)[C@@H]4C=C[C@H]3C4)c(Cl)cnc2[nH]1` , state its recorded IC50.
100 to 1000 nM

Please give the measured IC50 for this compound: `COc1cc(N2CCN(C)CC2)ccc1-c1nc2c(N[C@H]3[C@@H](C(N)=O)[C@@H]4C=C[C@H]3C4)ccnc2[nH]1`
1000 to 10000 nM

For the compound shown here, `COc1cc(C2CCN(C[C@@H](C)O)CC2)ccc1-c1nc2c(N[C@H]3[C@@H](C(N)=O)[C@@H]4C=C[C@H]3C4)c(Cl)cnc2[nH]1` , give the reported IC50.
< 100 nM

Then this compound:
// returns reported IC50 for input `CN(C)c1cccc(-c2nc3c(N[C@H]4[C@@H](C(N)=O)[C@@H]5C=C[C@H]4C5)c(Br)cnc3[nH]2)c1`
< 100 nM

====

# Target System: baculovirus-expressed ALK (Homo sapiens)
# Sequence (Q9UM73 19-1620): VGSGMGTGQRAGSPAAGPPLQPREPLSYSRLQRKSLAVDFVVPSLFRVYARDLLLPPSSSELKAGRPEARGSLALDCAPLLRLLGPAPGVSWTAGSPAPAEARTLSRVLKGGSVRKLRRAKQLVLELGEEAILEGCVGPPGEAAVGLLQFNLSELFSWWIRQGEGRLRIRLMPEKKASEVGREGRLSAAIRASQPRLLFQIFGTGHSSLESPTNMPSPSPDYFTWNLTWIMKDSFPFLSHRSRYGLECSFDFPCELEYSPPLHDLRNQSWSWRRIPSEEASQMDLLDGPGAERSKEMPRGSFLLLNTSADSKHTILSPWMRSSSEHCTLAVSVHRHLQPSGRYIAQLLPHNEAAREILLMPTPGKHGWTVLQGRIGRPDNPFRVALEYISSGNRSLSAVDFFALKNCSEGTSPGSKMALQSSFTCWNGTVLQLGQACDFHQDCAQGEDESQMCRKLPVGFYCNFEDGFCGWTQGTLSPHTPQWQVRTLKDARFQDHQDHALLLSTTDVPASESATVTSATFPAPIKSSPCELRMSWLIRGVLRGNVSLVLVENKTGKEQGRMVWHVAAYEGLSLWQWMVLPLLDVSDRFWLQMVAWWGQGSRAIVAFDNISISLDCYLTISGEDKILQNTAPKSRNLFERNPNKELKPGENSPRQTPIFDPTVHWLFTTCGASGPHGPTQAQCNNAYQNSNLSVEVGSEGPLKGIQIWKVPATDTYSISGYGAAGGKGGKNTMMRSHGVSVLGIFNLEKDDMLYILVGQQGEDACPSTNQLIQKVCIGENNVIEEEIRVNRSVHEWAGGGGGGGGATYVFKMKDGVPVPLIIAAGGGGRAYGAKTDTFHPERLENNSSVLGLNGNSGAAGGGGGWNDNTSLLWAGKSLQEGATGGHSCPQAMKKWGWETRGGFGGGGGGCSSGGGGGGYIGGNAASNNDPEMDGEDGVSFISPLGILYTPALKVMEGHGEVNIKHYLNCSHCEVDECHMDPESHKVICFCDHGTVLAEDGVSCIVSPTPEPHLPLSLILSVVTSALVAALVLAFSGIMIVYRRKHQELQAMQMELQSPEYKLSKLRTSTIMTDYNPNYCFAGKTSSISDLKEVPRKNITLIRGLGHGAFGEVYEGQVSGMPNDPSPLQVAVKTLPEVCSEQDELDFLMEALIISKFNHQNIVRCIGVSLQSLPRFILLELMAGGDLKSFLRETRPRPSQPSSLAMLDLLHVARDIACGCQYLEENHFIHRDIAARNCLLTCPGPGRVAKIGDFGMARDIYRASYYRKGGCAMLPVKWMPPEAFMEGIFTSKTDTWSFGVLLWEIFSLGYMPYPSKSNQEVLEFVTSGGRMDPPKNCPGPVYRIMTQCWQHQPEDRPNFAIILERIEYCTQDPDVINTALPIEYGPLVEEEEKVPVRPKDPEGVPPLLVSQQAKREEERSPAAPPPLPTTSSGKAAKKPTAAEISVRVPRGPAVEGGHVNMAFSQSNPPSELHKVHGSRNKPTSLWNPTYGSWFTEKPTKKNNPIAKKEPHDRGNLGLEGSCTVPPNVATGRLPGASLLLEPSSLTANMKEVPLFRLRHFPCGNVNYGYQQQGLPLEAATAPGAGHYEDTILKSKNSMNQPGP
# Assay Overview: ALK kinase inhibition, TRF/ELISA
# Format: biochemical
# Particulars: read-out: ALK Potency
Listed below: IC50 values for each entry.

Tell me reported IC50 for `NC(=O)[C@@H]1[C@H](Nc2c(Br)cnc3[nH]c(-c4cccc(Cl)c4)nc23)[C@H]2C=C[C@@H]1C2` , tested with baculovirus-expressed ALK (Homo sapiens).
100 to 1000 nM

Which IC50 is reported with baculovirus-expressed ALK (Homo sapiens) for this entry: `COC[C@H](O)CN1CCC(c2ccc(-c3nc4c(N[C@H]5[C@@H](C(N)=O)[C@@H]6C=C[C@H]5C6)c(Cl)cnc4[nH]3)c(OC)c2)CC1` ?
< 100 nM

Lab note: need IC50 for CC(O)CN1CCC(Oc2ccc(-c3nc4c(N[C@H]5[C@@H](C(N)=O)[C@@H]6C=C[C@H]5C6)c(Cl)cnc4[nH]3)cc2)CC1 (stereo partly drawn) on baculovirus-expressed ALK (Homo sapiens), anyone have it?
< 100 nM

Enter reported IC50 observed with baculovirus-expressed ALK (Homo sapiens) for `NC(=O)[C@@H]1[C@H](Nc2c(Br)cnc3[nH]c(-c4ccc(Cl)cc4)nc23)[C@H]2C=C[C@@H]1C2`
100 to 1000 nM

IC50 of `NC(=O)[C@@H]1[C@H](Nc2c(Cl)cnc3[nH]c(Nc4ccccc4)nc23)[C@H]2C=C[C@@H]1C2` on baculovirus-expressed ALK (Homo sapiens)?
100 to 1000 nM

Okay, next one:
Record lookup: for baculovirus-expressed ALK (Homo sapiens), what IC50 belongs to `NC(=O)[C@@H]1[C@H](Nc2c(Br)cnc3[nH]c(-c4cncnc4)nc23)[C@H]2C=C[C@@H]1C2` ?
100 to 1000 nM

====

# Target System: baculovirus-expressed ALK (Homo sapiens)
# Assay Overview: ALK kinase inhibition, TRF/ELISA
# Assay type: biochemical
# Particulars: read-out: ALK Potency
pIC50: −log10 of the molar value.
The following molecules are shown together with reported pIC50 values.

Completed entries (count: 6):
What does the record list as pIC50 for COc1cc(N2CCN(C)CC2)ccc1-c1nc2c(N[C@H]3[C@@H](C(N)=O)[C@@H]4C=C[C@H]3C4)ccnc2[nH]1 [Compound XCV] ?
5.00 to 6.00

Suppose we examine the molecule NC(=O)[C@@H]1[C@H](Nc2c(Cl)cnc3[nH]c(-c4sc(N5CCOCC5)nc4Cl)nc23)[C@H]2C=C[C@@H]1C2 [Compound CLX] ; what pIC50 value has been reported?
> 7.00

For the molecule NC(=O)[C@@H]1[C@H](Nc2c(Br)cnc3[nH]c(-c4cccc(F)c4)nc23)[C@H]2C=C[C@@H]1C2 [Compound CXXXII] , what pIC50 is on record?
6.00 to 7.00

For the molecule shown here, CN(C)C(=O)[C@@H]1[C@H](Nc2c(Cl)cnc3[nH]c(-c4sc(N5CC[C@@H](O)C5)nc4Cl)nc23)[C@H]2C=C[C@@H]1C2 [Compound CLXVIII] , give the reported pIC50.
> 7.00

Which pIC50 reading was recorded for the molecule COc1cc(C2CCN(C[C@H](C)O)CC2)ccc1-c1nc2c(N[C@H]3[C@@H](C(N)=O)[C@@H]4C=C[C@H]3C4)c(Cl)cnc2[nH]1 [Compound XLV] ?
> 7.00

Suppose we examine the molecule COc1ccc(-c2nc3c(N[C@H]4[C@@H](C(N)=O)[C@@H]5C=C[C@H]4C5)c(Cl)cnc3[nH]2)c(C2CCNCC2)c1 [Compound XXX] ; what pIC50 value has been reported?
5.00 to 6.00

Others:
Any idea what its pIC50 is? The molecule is CN(C)c1ccc(-c2nc3c(N[C@H]4[C@@H](C(N)=O)[C@@H]5C=C[C@H]4C5)c(Br)cnc3[nH]2)cc1 [Compound LXXVI]
> 7.00

====

Quick reference: pIC50 of the listed items.
# Target System: baculovirus-expressed ALK (Homo sapiens)
# Assay Overview: ALK kinase inhibition, TRF/ELISA
# Assay type: biochemical
# Particulars: read-out: ALK Potency
pIC50: −log10 of the molar value.

Observe how each entry below is paired with its result.
Name the reported pIC50 value associated with the compound `NC(=O)[C@@H]1[C@H](Nc2c(Br)cnc3[nH]c(-c4ccc(N5CCOCC5)nc4)nc23)[C@H]2C=C[C@@H]1C2`
> 7.00

Looking for the measured pIC50 of `COc1cc(C2=CCN(C[C@H](C)O)CC2)ccc1-c1nc2c(N[C@H]3[C@@H](C(N)=O)[C@@H]4C=C[C@H]3C4)c(Cl)cnc2[nH]1` , can you help?
> 7.00

So what's the measured pIC50 for this one? `CN(C)CCOc1ccc(-c2nc3c(N[C@H]4[C@@H](C(=O)N(C)C)[C@@H]5C=C[C@H]4C5)c(Cl)cnc3[nH]2)cc1`
6.00 to 7.00

Which pIC50 is reported for this compound? `CN(C)c1cccc(-c2nc3c(N[C@H]4[C@@H](C(N)=O)[C@@H]5C=C[C@H]4C5)c(Br)cnc3[nH]2)c1`
> 7.00

Bench note: what pIC50 did NC(=O)[C@@H]1[C@H](Nc2c(Cl)cnc3[nH]c(-c4ccc(C(=O)N5CCNC(C(=O)O)C5)cc4)nc23)[C@H]2C=C[C@@H]1C2 (stereo partly drawn) show?
> 7.00

Now look at this one.
Given `COC[C@@H](O)CN1CCC(c2ccc(-c3nc4c(N[C@H]5[C@@H](C(N)=O)[C@@H]6C=C[C@H]5C6)c(Cl)cnc4[nH]3)c(OC)c2)CC1` , state its recorded pIC50.
> 7.00
